system.under.test: OsWRKY34 (Oryza sativa, UniProt Q0JBA9 1-250)
Sequence (Q0JBA9 entry or part of it): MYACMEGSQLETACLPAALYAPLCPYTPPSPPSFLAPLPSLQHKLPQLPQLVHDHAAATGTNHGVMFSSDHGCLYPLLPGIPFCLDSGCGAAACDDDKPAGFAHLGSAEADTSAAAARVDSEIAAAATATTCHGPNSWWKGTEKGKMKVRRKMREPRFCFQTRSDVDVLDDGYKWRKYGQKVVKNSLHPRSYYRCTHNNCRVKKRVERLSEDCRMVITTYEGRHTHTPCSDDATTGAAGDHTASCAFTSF
assay.text: protein-binding microarray (RPBM); PBS, 2% BSA, 51.3 ng/ul salmon testes DNA, 50 uM zinc acetate, 200 nM TF, 25 C, 1 h; high values mean tight binding
experimental.context: protein: recombinant; tags: N-terminal polyhistidine and DsRed monomer fusion (pET32a); label: CyDye5-dUTP incorporated in the synthesized complementary strand; 3' TTTTT single-stranded linker to array surface; dsDNA, one strand shown
The full ranking holds about 68,000 sequences; the median of “fluorescence intensity (a.u.)” is about 9,100, and the highest 2% start at about 16,000. This is one part of a sample in which the highest values are shown more often than they occur.
quantity.measured: binding signal

According to the records, this sequence `ATTAATTTCGCTTGCTAACACGAGTTTAATCTGCCAATTTCGGAGTCACCTAGTGCAG` displays binding signal of 10000 fluorescence intensity (a.u.)

According to the records, this sequence `ACTTCACCGGTTTCCGGCGTCCGGCGCGGCGCCTGCAGAACGGAGTCACCTAGTGCAG` displays binding signal of 9530 fluorescence intensity (a.u.)

According to the records, this sequence `TTTTCTTGTTTGATTGACATAATGGGCCCTACATATTTTTCGGAGTCACCTAGTGCAG` displays binding signal of 8440 fluorescence intensity (a.u.)

According to the records, this sequence `ACATTCTCTTATACCCATCACAATCATTTGCTCAATAGGGCGGAGTCACCTAGTGCAG` displays binding signal of 8620 fluorescence intensity (a.u.)

According to the records, this sequence `ACCTTTCTCACTACACGCCATTCCGCTCGCGTCCAATTGTCGGAGTCACCTAGTGCAG` displays binding signal of 10100 fluorescence intensity (a.u.)

According to the records, this sequence `CAATGACCTTTTTTTTTCCTCTCTCTGTTGCTTCCGATATCGGAGTCACCTAGTGCAG` displays binding signal of 8500 fluorescence intensity (a.u.)

According to the records, this sequence `AACGGTTGCAGCTCTAATTGAGGGCTTTGTTTAGTTCATGCGGAGTCACCTAGTGCAG` displays binding signal of 8640 fluorescence intensity (a.u.)

According to the records, this sequence `GACCTCGCCGTCGCCGTCGCCGCCGCCGCCGCCGCCATGGCGGAGTCACCTAGTGCAG` displays binding signal of 9900 fluorescence intensity (a.u.)

According to the records, this sequence `CTAAATATTTAACGCTGTTGACTTTTTAAAACATATTTGACGGAGTCACCTAGTGCAG` displays binding signal of 9280 fluorescence intensity (a.u.)

###

system.under.test: OsWRKY34 (Oryza sativa, UniProt Q0JBA9 1-250)
assay.text: protein-binding microarray (RPBM); PBS, 2% BSA, 51.3 ng/ul salmon testes DNA, 50 uM zinc acetate, 200 nM TF, 25 C, 1 h; high values mean tight binding
experimental.context: protein: recombinant; tags: N-terminal polyhistidine and DsRed monomer fusion (pET32a); label: CyDye5-dUTP incorporated in the synthesized complementary strand; 3' TTTTT single-stranded linker to array surface; dsDNA, one strand shown
Whole data set: some 68,000 sequences, median “fluorescence intensity (a.u.)” near 9,100, cut for the highest 2% near 16,000. This is one part of a sample in which the highest values are shown more often than they occur.
quantity.measured: binding signal

According to the records, this sequence `ATTCTCAAAATCGAATTTGTTTTTATATTTCCCTTACTGTCGGAGTCACCTAGTGCAG` displays binding signal of 14700 fluorescence intensity (a.u.)

According to the records, this sequence `TTTATTAAACCTAGTTAATCCATTGTTAGCAAATATTTAACGGAGTCACCTAGTGCAG` displays binding signal of 23300 fluorescence intensity (a.u.)

According to the records, this sequence `TACTCTCTCTGTCCCCTTTTGTTTTTTTTCCTGTATACTGCGGAGTCACCTAGTGCAG` displays binding signal of 8690 fluorescence intensity (a.u.)

According to the records, this sequence `TGTTTGCTTATTACTATTTTTTTTGGGGCGGGAAATTAAACGGAGTCACCTAGTGCAG` displays binding signal of 14100 fluorescence intensity (a.u.)

According to the records, this sequence `TTATATTTTGGGACGGAGTATTACTTTGAATCCCTTTTCCCGGAGTCACCTAGTGCAG` displays binding signal of 8280 fluorescence intensity (a.u.)

According to the records, this sequence `GCCGTTGACTTTTTATCCAACGTTTGATCATTCGTCTTATCGGAGTCACCTAGTGCAG` displays binding signal of 40800 fluorescence intensity (a.u.)

According to the records, this sequence `ATTTTATCCAACGTTTGACCATTCGTCTTATATAAAATATCGGAGTCACCTAGTGCAG` displays binding signal of 9960 fluorescence intensity (a.u.)

According to the records, this sequence `TATTAAATCATTTAATTTTAGCTATTGTTTTTTATTTATTCGGAGTCACCTAGTGCAG` displays binding signal of 9250 fluorescence intensity (a.u.)

According to the records, this sequence `CGTCCAACTTTGATCGTCCGTTTTATTTGAATTTTTTTATCGGAGTCACCTAGTGCAG` displays binding signal of 11200 fluorescence intensity (a.u.)

According to the records, this sequence `AAAATTTTATTTTTCATGTGTGGCTTATTGTCCTTTTTTGCGGAGTCACCTAGTGCAG` displays binding signal of 9470 fluorescence intensity (a.u.)

According to the records, this sequence `TTTTTTTTTCTTTTGGGGCGGAAGGAGTAGTATGGAGTTTCGGAGTCACCTAGTGCAG` displays binding signal of 12300 fluorescence intensity (a.u.)

According to the records, this sequence `CTTATTTAGTTGGGGAAAATTTTTGGGTTTGTTTGTCACACGGAGTCACCTAGTGCAG` displays binding signal of 11600 fluorescence intensity (a.u.)

According to the records, this sequence `ACGCTGTTGTAATTCCAGATGTTGGTCAGTAGTCATTACTCGGAGTCACCTAGTGCAG` displays binding signal of 10700 fluorescence intensity (a.u.)

According to the records, this sequence `TATTGTTTAGTTGGGAAAAAAATTTGGGGTTGGTTGTCACCGGAGTCACCTAGTGCAG` displays binding signal of 10400 fluorescence intensity (a.u.)

According to the records, this sequence `TCCTCTTGCAATCATTCACTCTCCTTGCTCGATTCTATAACGGAGTCACCTAGTGCAG` displays binding signal of 11300 fluorescence intensity (a.u.)

According to the records, this sequence `TATTTGGTTTTGTAGGGGTTGGTTTGGGAAAATTGGAAAGCGGAGTCACCTAGTGCAG` displays binding signal of 16400 fluorescence intensity (a.u.)

According to the records, this sequence `TTTCGATTGTTGTTTATTTTCCAGCATTAGTTTTTAAATCCGGAGTCACCTAGTGCAG` displays binding signal of 8320 fluorescence intensity (a.u.)

According to the records, this sequence `GAAAAATTGTCCCTTTTTATTTGGGAGGGGAGGGAGGAGGCGGAGTCACCTAGTGCAG` displays binding signal of 17100 fluorescence intensity (a.u.)

According to the records, this sequence `AGTTAAAACCGCTACTCCACTCCTCCCATTGCATAATTTTCGGAGTCACCTAGTGCAG` displays binding signal of 9400 fluorescence intensity (a.u.)
